Catalogue of phosphorylation enrichment readings, one per entry.
- tested_on: Jak2 (UniProt O60674)
- Sequence (O60674 whole entry, looked up): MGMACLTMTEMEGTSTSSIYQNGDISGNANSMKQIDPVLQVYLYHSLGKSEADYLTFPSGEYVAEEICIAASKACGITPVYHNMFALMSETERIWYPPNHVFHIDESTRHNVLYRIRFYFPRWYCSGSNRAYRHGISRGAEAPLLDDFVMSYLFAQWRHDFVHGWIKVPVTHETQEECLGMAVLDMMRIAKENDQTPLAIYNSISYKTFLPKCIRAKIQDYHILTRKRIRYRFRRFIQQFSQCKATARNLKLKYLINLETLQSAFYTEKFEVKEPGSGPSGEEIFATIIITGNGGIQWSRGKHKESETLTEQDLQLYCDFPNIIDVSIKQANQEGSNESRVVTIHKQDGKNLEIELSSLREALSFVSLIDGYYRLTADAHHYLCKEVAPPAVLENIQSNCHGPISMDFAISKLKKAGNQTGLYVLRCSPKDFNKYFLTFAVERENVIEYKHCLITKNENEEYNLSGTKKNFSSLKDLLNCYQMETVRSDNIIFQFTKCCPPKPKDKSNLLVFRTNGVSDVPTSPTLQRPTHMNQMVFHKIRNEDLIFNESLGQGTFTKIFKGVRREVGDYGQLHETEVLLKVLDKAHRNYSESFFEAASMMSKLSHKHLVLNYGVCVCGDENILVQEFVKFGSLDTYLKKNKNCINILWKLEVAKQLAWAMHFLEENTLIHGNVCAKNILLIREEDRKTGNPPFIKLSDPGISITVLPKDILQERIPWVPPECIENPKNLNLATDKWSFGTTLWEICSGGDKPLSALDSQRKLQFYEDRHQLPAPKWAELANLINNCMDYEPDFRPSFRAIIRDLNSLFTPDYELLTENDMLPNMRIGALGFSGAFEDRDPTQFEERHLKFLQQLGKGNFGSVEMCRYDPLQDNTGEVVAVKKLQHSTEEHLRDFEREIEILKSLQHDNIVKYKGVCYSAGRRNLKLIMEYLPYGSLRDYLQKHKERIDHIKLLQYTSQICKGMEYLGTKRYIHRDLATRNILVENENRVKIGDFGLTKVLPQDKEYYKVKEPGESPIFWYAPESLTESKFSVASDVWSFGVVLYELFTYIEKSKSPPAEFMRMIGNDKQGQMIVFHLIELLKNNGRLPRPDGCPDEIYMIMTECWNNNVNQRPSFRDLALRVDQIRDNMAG
- test_name: phosphorylation enrichment, bacterial display (enrichment ratio); higher = better substrate or ligand; peptides without Tyr show the background

monomer_sequence	phosphorylation enrichment
LIDTVYSSSSA [OR4C12_Y71]	1.19
RAQIRYAQEHD [NSD1_Y1987_R1984Q]	0.911
IGDENYGEGSS [ACO2_Y665]	1.39
TVQVAYFTVMM [SPATA17_Y83_M86V_YF]	1.3
VLTSKYPGGGG [HBA1_Y141_R142P]	0.441
FRTPGYREVVI [TNS2_Y673_A670T_YF]	0.615
FMKEPYIQSRF [HIPK4_Y175_V171M_YF]	0.807
REEKNYKHKET [BCLAF1_Y459_L461H]	0.571
LARDMYDKEFF [MET_Y1230_YF]	0.702
LVRAFYCERRW [CARD11_Y970_R975W]	0.857
QYQEKYKQVEQ [HCN4_Y531]	0.858
SLAARYFNWVS [FLT4_Y1230_YF]	0.935
GGDAVYTNGTI [RFX2_Y82_A86T]	0.667
PSAELYSYALP [PDGFRB_Y716_N718Y]	0.947
GRTPLYMDRQG [AGXT_Y194_G190R]	0.472
VDASFCGGRGV [ANTXR2_Y381_Y381C_YF]	0.894
SGRPGYCLGTR [SCO1_Y60]	0.58
EWLRRYLENGK [HLA-A_Y195]	0.661
GTFVIYVRFGG [FLNB_Y1687_YF]	0.711
DYYDLYGGKKF [PTPN11_Y66_E69K]	0.971
QCTSAHPLQPE [NANS_Y188_Y188H]	1.28
ENGPYYTSYPP [GDAP2_Y488]	0.703
WSISFYPQVIM [CTNS_Y143]	1.19
FFRDGHMPRQF [GSS_Y270_Y270H_YF]	0.491
ETELPYQELQG [TYROBP_Y91_S89L]	1.02

* * *

- tested_on: SHP2-C SH2
- test_name: SH2 binding enrichment of the phosphorylated peptide, bacterial display (enrichment ratio); higher = better substrate or ligand; peptides without Tyr show the background

monomer_sequence	SH2 binding enrichment
RSRQIYDAFIM [GRK3_Y109_YF]	0.592
LAGRFYALKSM [CKB_Y174_YF]	1.11
PKGTGYIKTEL [STAT1_Y701]	0.893
LLTALYFISRG [KCNH2_Y780]	1.99
PVGVLYEVKVY [PTS_Y128_K129E]	0.725
RLEGVYGNNID [PTEN_Y46_R47G]	0.444
WFQTKYEELQV [KRT6B_Y360_I365V_YF]	1.08
AYGNLYGSRKQ [YIPF7_Y59]	0.584

* * *

- tested_on: Hck (UniProt P08631)
- Sequence (P08631 whole entry, looked up): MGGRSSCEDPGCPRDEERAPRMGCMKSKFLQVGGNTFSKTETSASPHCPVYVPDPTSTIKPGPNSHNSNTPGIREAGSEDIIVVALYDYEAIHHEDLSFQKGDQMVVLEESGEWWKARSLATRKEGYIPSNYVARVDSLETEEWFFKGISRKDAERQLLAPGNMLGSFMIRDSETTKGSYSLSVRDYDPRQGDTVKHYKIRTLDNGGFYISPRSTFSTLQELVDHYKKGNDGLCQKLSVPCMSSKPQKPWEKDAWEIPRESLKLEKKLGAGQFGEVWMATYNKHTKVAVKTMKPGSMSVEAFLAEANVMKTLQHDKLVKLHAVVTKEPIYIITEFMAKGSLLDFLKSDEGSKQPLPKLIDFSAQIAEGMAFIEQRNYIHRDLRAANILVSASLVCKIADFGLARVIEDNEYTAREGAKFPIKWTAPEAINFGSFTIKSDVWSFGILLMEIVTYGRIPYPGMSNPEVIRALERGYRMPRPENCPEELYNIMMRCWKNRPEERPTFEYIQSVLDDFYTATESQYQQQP
- test_name: phosphorylation enrichment, bacterial display (enrichment ratio); higher = better substrate or ligand; peptides without Tyr show the background
measurement_label: phosphorylation enrichment

monomer_sequence	value_measured
MTFQNYGQALF [FAM20C_Y279]	0.462
SEDSEYFKAFE [CASQ2_Y178_YF]	0.582
LGGAMYYLEAE [PKHD1_Y452]	1.4
LKKKQYTSIHH [APP_Y728]	0.869
KVASVYEAPGF [NT5C_Y65]	9.28
AGIVVYNIIGW [MYH7_Y588_D587V]	2.35
CSKRFYQLTKL [AR_Y858_R855K]	0.424
SPLTDYSPQLQ [OTC_Y345_L341P]	0.417
DKATEYSQYMR [MAX_Y70_I71S]	0.556
ACVARYIFKRL [LPCAT3_Y348_W344C]	0.426
FSVDGYDSSVR [KCNQ1_Y461]	0.393
PRQRRYVYYYS [PTEN_Y174_S170R]	0.911
GVRLYYRVMES [RB1_Y454]	0.437
MFFSTYDRDND [FGB_Y408]	0.511
DLNATYRTIQG [U2SURP_Y634]	0.688
RELSWYRGQRP [HESX1_Y106_R109Q]	0.552
QEIATYRRLLE [KRT14_Y415]	0.453
APVEDYGGGGG [B4GALT6_Y382_I379V]	0.452
TRVMEYISRLD [CLTCL1_Y1043]	0.511
CEAIEYLESKQ [BTK_Y511_M509I]	0.552
LARDMYDKEYY [MET_Y1230]	0.765
GNHISYYQSDG [CACNA1C_Y1757_V1755I]	0.397
ATDLAYFLVRE [ASL_Y375_K380E_YF]	0.782
AKKKMYSLKTK [AGXT_Y231_R233L]	0.44
SLALFYRNVFH [RBL1_Y792_K794N_YF]	0.5
PSTYRYERGSR [INPPL1_Y663_P659S]	0.661
LPKEQYLFTKE [AFG3L2_Y614_YF]	0.996
ERFSYYGMKAV [SLC15A2_Y61]	1.37
FSLIHYAGIVD [MYH7_Y582]	0.458
ESKAGYRVPRS [CLDN7_Y195]	0.416
NTCNRYCCDEI [ITGB3_Y660_R662C]	0.574
TVSQPYSFIEF [SEC22B_Y110_R108Q]	3.08
FEDALYTVLHR [UNC13D_Y61_YF]	9.35
ITQRAYRRHLL [SCN1A_Y1926_I1922T]	0.457
PSAELYSYALP [PDGFRB_Y716_N718Y]	8.81
RLGLQYSQGLV [EIF2B4_Y214]	0.588
FRTPGYREVVI [TNS2_Y673_A670T_YF]	0.43
RFLTRYIFNRE [HLA-DQB1_Y62_V59L_YF]	0.452
DNPAKYFILEN [DPP10_Y512_S517N]	0.392
PADSGYPAYLG [ATP6V1A_Y374]	0.735
PEPTGYSAELS [EZR_Y499_A494P]	0.419
PGAPAYRVLME [MYO5A_Y1245]	0.564
GRLFAYPDTHC [CAT_Y358_R363C]	0.481
GVSYIYTIDGS [DCX_Y105_R102S]	2.71
YQLENCCNGGG [INS_Y108_Y108C]	0.563
SAAAIYMVRHP [PMP22_Y117_T118M]	7.71
EYKDAYKFAAD [BRDT_Y335]	0.542

Recorded values, source the supplement of paper PMC10065799.
